Test system: SF-295 CNS
Assay: NCI-60 one-dose screen, 48 h (100 = growth as untreated, 0 = no growth, -100 = all killed)
Details: 10 µM unless noted
The panel holds about 83,000 compounds, 20% with a hit somewhere; the sample as a whole holds those more often.
assay-endpoint: growth (%)
Enter your answer as a number in %; do not include the unit.

Please review the following examples before continuing.
Qu. Look at this compound and give its reported growth. "CC(=O)c1cc2c(N)c(C(=O)Nc3cccc(F)c3C)sc2nc1C"
Ans. 82.4

Qu. Query "O=C1c2cccc3cccc(c23)C(=O)N1CCCCN1CCN(CCCCOc2ccc(-c3nc4ccc(N5CCOCC5)cc4[nH]3)cc2)CC1" next
Ans. 74.7

---
Qu. Recorded growth of CN1C(=O)C2(SCC(C(=O)NCc3ccccc3)N2C(=O)C2CCCCC2)c2ccccc21 (configuration not stated) , please.
Ans. 100
